TEST_METHOD_NOTES: Absorption and fluorescence maxima of the dyes
Type: physicochemical
REPORTED_CONDITIONS: PBS
RECORDED_METRIC: λmax^abs (nm)
The response must be a number in nm with no trailing unit.

Solved cases below.
{"COMPOUND": "CC[N+]1=C(/C=C/C=C/C=C2/N(CCCCS(=O)(=O)[O-])c3ccc(C)cc3C2(C)CCCCC(=O)O)C(C)(C)c2cc(C)cc(C)c21 (stereo not drawn) [A6]", "λmax^abs [nm]": 656}
{"COMPOUND": "CCN1C(=CC=CC=CC2=[N+](CCCCS(=O)(=O)[O-])c3ccccc3C2(C)CCCCC(=O)O)C(C)(C)c2ccccc21 (stereo not drawn) [A1]", "λmax^abs [nm]": 643}
{"COMPOUND": "CCN1C(=CC=CC=CC2=[N+](CCCCS(=O)(=O)[O-])c3ccc(C)cc3C2(C)CCCCC(=O)O)C(C)(C)c2ccccc21 (stereo not drawn) [A4]", "λmax^abs [nm]": 649}
{"COMPOUND": "CC[N+]1=C(/C=C/C=C/C=C2/N(CCCCS(=O)(=O)[O-])c3ccccc3C2(C)CCCCC(=O)O)C(C)(C)c2cc(C)cc(C)c21 (stereo not drawn) [A3]", "λmax^abs [nm]": 650}

input: Please give the documented λmax^abs of CCN1/C(=C/C=C/C=C/C2=[N+](CC)c3ccc(S(=O)(=O)[O-])cc3C2(C)C)C(C)(CCCCC(=O)O)c2ccccc21 (stereo not drawn) [A7]
output: 646

input: Please give the documented λmax^abs of CC[N+]1=C(C=CC=CC=C2N(CCCCS(=O)(=O)[O-])c3ccccc3C2(C)C)C(C)(CCCCC(=O)O)c2ccccc21 (stereo not drawn) [A8]
output: 646
